Recorded values, source patent US20110098241A1.

For each entry below, report its pIC50 value.
biological target: mTOR (UniProt P42346+P62942); assay: mTOR Assay Screening Protocol (K-LISA mTOR Activity Kit, inhibitor with FKBP12); conditions: mTOR Standard pre-incubated with inhibitor and FKBP12 (35-37 ug/ml); p70S6K-T389 phosphorylation ELISA, absorbance at 450 nm
Sequence (P62942 2-108 limits assumed, other chains not shown): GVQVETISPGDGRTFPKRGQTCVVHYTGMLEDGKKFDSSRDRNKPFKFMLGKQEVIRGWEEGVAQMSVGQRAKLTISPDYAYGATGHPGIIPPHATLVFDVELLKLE
Numbers only, as −log10 of the molar value.

Please state pIC50 for every molecule in the list that follows.
1. CO[C@H]1C[C@@H]2CC[C@@H](C)[C@@](O)(O2)C(=O)C(=O)N2CCCC[C@H]2C(=O)O[C@H]([C@H](C)C[C@@H]2CC[C@@H](OC(=O)CN3CCC(CCO)CC3)[C@H](OC)C2)CC(=O)[C@H](C)/C=C(\C)[C@@H](O)[C@@H](OC)C(=O)[C@H](C)C[C@H](C)/C=C/C=C/C=C/1C
2. CO[C@H]1C[C@@H]2CC[C@@H](C)[C@@](O)(O2)C(=O)C(=O)N2CCCC[C@H]2C(=O)O[C@H]([C@H](C)C[C@@H]2CC[C@@H](OC(=O)N3CCN(C)CC3)[C@H](OC)C2)CC(=O)[C@H](C)/C=C(\C)[C@@H](O)[C@@H](OC)C(=O)[C@H](C)C[C@H](C)/C=C/C=C/C=C/1C
3. CO[C@H]1C[C@@H]2CC[C@@H](C)[C@@](O)(O2)C(=O)C(=O)N2CCCC[C@H]2C(=O)O[C@H]([C@H](C)C[C@@H]2CC[C@@H](OC[Si](C)(C)C)[C@H](OC)C2)CC(=O)[C@H](C)/C=C(\C)[C@@H](O)[C@@H](OC)C(=O)[C@H](C)C[C@H](C)/C=C/C=C/C=C/1C [Example 11, 42-O-[Trimethylsilyl-methyl]-rapamycin]

Result:
7.15
5.60
5.64
